- studySystem: Replicase polyprotein 1ab (Severe acute respiratory syndrome coronavirus 2, UniProt P0DTD1)
- experimentDescription: Inhibition of recombinant full length his tagged C-terminal SARS-CoV 2 main protease (M1 to Q307 residues) expressed in Escherichia coli BL21 (DE3) cells using LGSAVLQ-Rh110-dP as peptide substrate preincubated for 1 hr followed by substrate addition and measured after 24 hrs by fluorescence based analysis
measurementKind: pIC50
Give bare numbers, as −log10 of the molar value.

Check out these entries, answers already filled in.
> print(dat)
                                 smilescode  valuereported
1         CCCCCCNC(=O)n1cc(Cl)c(=O)[nH]c1=O           5.26
2  O=C(NCCCNC(=O)n1cc(F)c(=O)[nH]c1=O)c1cc2ccccc2n1Cc1ccccc1           5.29
3  O=C(CC1CCCCC1)N1CCC(CCCNC(=O)n2cc(F)c(=O)[nH]c2=O)CC1           5.35
4  CC(C)Cn1c(C(=O)NCCCNC(=O)n2ccc(=O)[nH]c2=O)cc2cc(Cl)ccc21           5.80

Pending compound:
Sample O=C(NCCCC1CCCCC1)n1cc(F)c(=O)[nH]c1=O — what was its pIC50?
5.48

* * *

Exercise: for every item that follows, state its recorded CC50 at 48 h.
- experimentDescription: Cytotoxicity against human Calu-3 cells measured after 2 days by MTT assay
- Format: toxicity, cell-based
- assayContext: time 2 day

Check out these entries, answers already filled in.
> print(dat)
                                   molecule  valuereported
1  CC(C)Cn1c(C(=O)NCCCNC(=O)n2ccc(=O)[nH]c2=O)cc2cc(F)ccc21       > 100 µM
2  Cc1cn(C(=O)NCCCNC(=O)c2cc3cc(Cl)ccc3n2CC(C)C)c(=O)[nH]c1=O       > 100 µM
3  CC(C)(C)CC(=O)N1CCC(CCCNC(=O)n2cc(F)c(=O)[nH]c2=O)CC1          99 µM
4       O=C(NCCC1CCCC1)n1cc(F)c(=O)[nH]c1=O       > 100 µM

# per-item lookup of CC50 at 48 h; items listed below
1. CCC(CC)COC(=O)[C@H](C)N[P@](=O)(OC[C@H]1O[C@@](C#N)(c2ccc3c(N)ncnn23)[C@H](O)[C@@H]1O)Oc1ccccc1
2. CCCCCCNC(=O)n1cc(F)c(=O)[nH]c1=O [CARMOFUR]
3. CC(C)Cn1c(C(=O)NCCCNC(=O)n2cc(F)c(=O)[nH]c2=O)cc2cc(F)ccc21

1. > 100 µM
2. > 100 µM
3. 98 µM

# per-item lookup of CC50 at 48 h; items listed below
1. Cc1cn(C(=O)NCCCNC(=O)c2cc3cc(F)ccc3n2CC(C)C)c(=O)[nH]c1=O
2. CC(C)Cn1c(C(=O)NCCCNC(=O)n2cc(F)c(=O)[nH]c2=O)cc2cc(Cl)ccc21

1. > 100 µM
2. > 100 µM

Sample CC(C)Cn1c(C(=O)NCCCNC(=O)n2ccc(=O)[nH]c2=O)cc2cc(Cl)ccc21 — what was its CC50 at 48 h?
> 100 µM

* * *

- studySystem: Replicase polyprotein 1ab (Severe acute respiratory syndrome coronavirus 2, UniProt P0DTD1)
- experimentDescription: Inhibition of recombinant full length his tagged C-terminal SARS-CoV 2 main protease (M1 to Q307 residues) expressed in Escherichia coli BL21 (DE3) cells using LGSAVLQ-Rh110-dP as peptide substrate preincubated for 1 hr followed by substrate addition and measured after 24 hrs by fluorescence based analysis
Exercise: for every item that follows, state its recorded pIC50.
Answers are plain numbers, as −log10 of the molar value.

Check out these entries, answers already filled in.
> print(dat)
                                 smilescode  measurementkind  valuereported
1    O=C(NCCCCc1ccccc1)n1cc(F)c(=O)[nH]c1=O            pIC50           5.41
2  O=C(NCCCNC(=O)n1cc(F)c(=O)[nH]c1=O)c1ccc2cc[nH]c2c1            pIC50           5.62
3  COc1ccc2c(c1)cc(C(=O)NCCCNC(=O)n1cc(F)c(=O)[nH]c1=O)n2CC(C)C            pIC50           5.85
4  CC(C)Cn1c(C(=O)NCCCNC(=O)n2ccc(=O)[nH]c2=O)cc2cc(F)ccc21            pIC50           6.24
5          CCCCCCNC(=O)n1cc(C)c(=O)[nH]c1=O            pIC50           5.12
6  CC(C)Cn1c(C(=O)NCCCNC(=O)n2cc(F)c(=O)[nH]c2=O)cc2cc(F)ccc21            pIC50           6.43
7  CC(C)(C)OC(=O)N1CCC(CCCNC(=O)n2cc(F)c(=O)[nH]c2=O)CC1            pIC50           5.47
8  O=C(c1ccc2cc[nH]c2c1)N1CCC(CCCNC(=O)n2cc(F)c(=O)[nH]c2=O)CC1            pIC50           5.51

# per-item lookup of pIC50; items listed below
1. Cc1cn(C(=O)NCCCNC(=O)c2cc3cc(F)ccc3n2CC(C)C)c(=O)[nH]c1=O
2. Cc1cn(C(=O)NCCCNC(=O)c2cc3cc(Cl)ccc3n2CC(C)C)c(=O)[nH]c1=O
3. Cn1c(C(=O)NCCCNC(=O)n2cc(F)c(=O)[nH]c2=O)cc2ccccc21
4. O=C(Cc1ccccc1)N1CCC(CCCNC(=O)n2cc(F)c(=O)[nH]c2=O)CC1
5. CCCCCCNC(=O)n1cc(C(F)(F)F)c(=O)[nH]c1=O
6. CCCCCCNC(=O)n1ccc(=O)[nH]c1=O

6.15
5.89
5.82
5.41
5.13
5.01
